assayedSystem: 3',5'-cyclic-AMP phosphodiesterase 4B (Homo sapiens) (UniProt Q07343)
Sequence (Q07343 whole entry): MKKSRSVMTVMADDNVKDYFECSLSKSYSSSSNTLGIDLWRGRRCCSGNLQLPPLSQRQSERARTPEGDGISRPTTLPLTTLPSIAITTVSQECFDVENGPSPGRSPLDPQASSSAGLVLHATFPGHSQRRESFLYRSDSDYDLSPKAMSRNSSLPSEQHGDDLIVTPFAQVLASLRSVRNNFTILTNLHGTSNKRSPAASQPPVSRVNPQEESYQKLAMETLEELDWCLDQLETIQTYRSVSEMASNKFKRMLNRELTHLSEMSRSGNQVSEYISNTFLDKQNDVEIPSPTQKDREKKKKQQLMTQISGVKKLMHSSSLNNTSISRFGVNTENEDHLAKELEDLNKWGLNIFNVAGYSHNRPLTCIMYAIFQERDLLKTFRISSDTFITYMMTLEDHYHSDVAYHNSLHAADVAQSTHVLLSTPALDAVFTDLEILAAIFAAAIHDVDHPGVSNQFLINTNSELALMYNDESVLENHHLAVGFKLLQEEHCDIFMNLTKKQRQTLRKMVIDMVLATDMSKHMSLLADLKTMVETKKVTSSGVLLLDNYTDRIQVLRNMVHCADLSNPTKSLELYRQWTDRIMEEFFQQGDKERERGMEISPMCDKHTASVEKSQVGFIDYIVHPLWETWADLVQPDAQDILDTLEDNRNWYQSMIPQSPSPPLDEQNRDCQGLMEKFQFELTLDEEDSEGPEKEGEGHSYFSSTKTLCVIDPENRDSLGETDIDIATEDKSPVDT
experimentalDetails: Inhibition of PDE4B2 expressed in COS7 cells assessed as cAMP hydrolysis at 100 uM
Type: cell-based
measurementConditions: COS-7
Returns true (1) if the recorded inhibition is greater than or equal to 70%, and false (0) otherwise.

Please review the following examples before continuing.
INSERT INTO results (compound, cat) VALUES
  ('COc1ccc(C2CNC(=O)C2)cc1OC1CCCC1 (stereo not given)', 'true (1)'),
  ('COC(=O)c1cc(C(=CCCCSC)c2cc(Cl)c(OC)c(C(=O)OC)c2)cc(Cl)c1OC', 'false (0)');

Now turn to the next compound.
Given `COC(=O)CCCC=C(c1cc(Br)c(OC)c(C(=O)OC)c1)c1cc(Br)c(OC)c(C(=O)OC)c1` , state whether its inhibition is at least 70%.
false (0)
